Assay: Biodistribution of 99mTc complexes in mice
Format: in vivo, Balb/c mice
Conditions: 3 min
# biodistribution liver per entry
// return numeric value only (unit: % Injected dose, not printed)

Examples with their reported biodistribution liver follow.
Compound: O=C(O)CN(CCN(CC(=O)O)CC(=O)Nc1ccccc1O)CC(=O)Nc1ccccc1O
biodistribution liver / % Injected dose: 12.83
--
Compound: O=C(O)CN(CCN(CC(=O)O)CC(=O)Nc1ccc(Cl)cc1O)CC(=O)Nc1ccc(Cl)cc1O
biodistribution liver / % Injected dose: 14.52
--
Compound: Nc1ccc(O)c(NC(=O)CN(CCN(CC(=O)O)CC(=O)Nc2cc(N)ccc2O)CC(=O)O)c1
biodistribution liver / % Injected dose: 5.04
--
Compound: CC(C)(C)c1ccc(O)c(NC(=O)CN(CCN(CC(=O)O)CC(=O)Nc2cc(C(C)(C)C)ccc2O)CC(=O)O)c1
biodistribution liver / % Injected dose: 40.23

# next molecule below
## Task Supply biodistribution liver value. Item: "Cc1cc(C)c(O)c(NC(=O)CN(CCN(CC(=O)O)CC(=O)Nc2cc(C)cc(C)c2O)CC(=O)O)c1"
## Result 35.66
